# System: Canis familiaris
# Protocol: Volume of distribution at steady state in dog at 1 mg/kg, po and iv
# Type: ADME, organism-based, Canis lupus familiaris
# Parameters: dose 1 mg/kg, route oral
# Measurement Parameters: in vivo
Endpoint: Vdss (L/kg)
The figure you give is taken to be in L/kg; do not add the unit.

>>> df
                         chemical_structure   measured_target  endpoint  measured
0  Cc1ccc(C(=O)N[C@H]2C3CC4CC2C[C@](O)(C4)C3)c(C2CC2)n1  Canis familiaris      Vdss       0.3

Looking up CCCSc1nc(N2CCOCC2)ccc1C(=O)N[C@H]1C2CC3CC1C[C@](O)(C3)C2 , I see its Vdss listed as 0.5

Looking up CCCSc1nc(C)ccc1C(=O)N[C@H]1C2CC3CC1C[C@](O)(C3)C2 , I see its Vdss listed as 0.4

Each recorded value in this set is attributed to ChEMBL document CHEMBL2157961.
